# Test system: RARb:RXRa (NR concentration 270 nM, RXRa partner concentration 90 nM)
# experimentDescription: PBM binding z-score (relative to random genomic background probes); higher = stronger binding; sequences stand for … in GC…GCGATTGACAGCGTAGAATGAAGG
Give measured PBM binding z-score for each item. Keep answers brief.
No unit in the answer, only the number.

Q: For `ATATGTAGGTTACATCCGGGTCATGCAGGCTATG` , what is its reported PBM binding z-score?
A: 2.36

Q: Please do the same for `CCTAGCAGCCCAATCTGGGTCACTCAAGGCTTGA` as well.
A: 0.878

Q: Please do the same for `AGTCAAAGTTCTCTAGGTAACGTAAGATTCAGCT` as well.
A: 0.732

Q: Please do the same for `CCTACTGGGCCACGAAAGGACATTGATTCAGTGA` as well.
A: 1.11

Q: Please do the same for `CAAACTAGGACACAGAGGTCAAAGTCCGTGCGTA` as well.
A: 4.28

Q: Please do the same for `CCGAGTAGGTAATGGGGCATTCAGGCAACGGTGA` as well.
A: 0.118

Q: Please do the same for `CAAACTAGGTCACCGAGGTCAAAGTCCGTGCGTA` as well.
A: 5.18

Q: Please do the same for `AGAATGAGGATAAGATCAGGGAAACAGAATACAT` as well.
A: 0.0475

Q: Please do the same for `TCTTGTAGATCAATAGAGGTTTAGAAAGTGCGCT` as well.
A: -0.311

Q: Please do the same for `ATCTCTGGGTAAAAGTTCAGTGAATCCCGAGGAT` as well.
A: 2.59

Q: Please do the same for `TCTTGTAGATCAGCAGGTTACGAAAGCTGGCCAA` as well.
A: 0.143

Q: Please do the same for `ATCGAAAGGTCGTGAGGTCAGTATACAGAAAGGC` as well.
A: 5.02

Q: Please do the same for `ACTAGCAGGCCAACTTTGGGTCACTCAAACAAAG` as well.
A: 1.74

Q: Please do the same for `TCTTGTAGACCAAGCAGGTTAAGAAAGCCTGAGT` as well.
A: 0.219

Q: Please do the same for `ATCTCTAGGTAAGACTCAGTTCAGTTAAGAACGC` as well.
A: 0.431

Q: Please do the same for `TATTGTAGATCAAGCAGGTTAAGAAAGCCTGAGT` as well.
A: -0.0192

Q: Please do the same for `AATACAGGGTCACTAGGCTAGAGTAGGTACGAAT` as well.
A: 4.28

Q: Please do the same for `TAGCCTAGGCCATGCGGGCCAGTATAGTGTCGGC` as well.
A: 0.00206

Q: Please do the same for `AGTCAAAGTTCAGGGCGAGGTAACGTAAAGCACG` as well.
A: 4.49

Q: Please do the same for `ATATGTAGGTTATCGAGTCATTCAGTTTGCGCAT` as well.
A: 0.872

Q: Please do the same for `CCTACTGGGCCAAAAAGGTCACTGATGCCGATAA` as well.
A: 4.15

Q: Please do the same for `GCGACTGGGGCAAAGCAGGTTACCATTAGGTTGG` as well.
A: 0.975

Q: Please do the same for `CCTATTAGTTGACCAAAAGGGCAACCGAAGCTCG` as well.
A: 2.51

Q: Please do the same for `CCTAGCATGCCAGGGTCACTCAAGCATTTCGCTT` as well.
A: 2.35

Q: Please do the same for `GCTATTCGTTGAAAGGGCAACCGAATGATTCTCG` as well.
A: 1.8

Q: Please do the same for `CCTGCTAGGTCATGGTCGGCTAATCTACAGTATG` as well.
A: 3.93
